Value source: PubChem BioAssay (NCI)

test system: SN12C renal; test: NCI tumour cell line growth inhibition, 48 h
Measured TGI values are reported for all entries that follow.

Look over these answered cases.
Compound	Target Of Assay	TGI
O=C(Nc1ccc(Cl)c(Cl)c1)NS(=O)(=O)c1cnccc1Oc1ccc(F)cc1	SN12C renal	15.4 µM
FC(F)(F)c1cc(C2SCc3nc4ccccc4n32)cc(C(F)(F)F)c1 (stereo not given)	SN12C renal	> 100 µM
Cc1ccc(/C=C2\Cc3c(C)cc(C)cc3C2=O)c(C(=O)O)c1	SN12C renal	> 100 µM
C[N+](C)(C)CC1CCCCC1O (stereo not given)	SN12C renal	> 100 µM
O=C1OCC2=C1C(c1ccccc1)c1cc3c(cc1N2CCO)OCO3 (stereo not given)	SN12C renal	> 50 µM

// field: TGI; key: COC(=O)C1(O)CC(=O)CCC1c1ccc(OC)cc1 (stereo not given) ; value = > 100 µM

Given item C#CCN(Cc1ccc2nc(OC)c(OC)nc2c1)c1cc(OC)c(OC)c(OC)c1 , the value recorded as its TGI is 57.2 µM

###

test system: 786-0 renal; experiment: NCI tumour cell line growth inhibition, 48 h; in the data active means GI50 below about 0.43 µM; inactive means the rest
// one of yes for active, no for inactive, no free text

Solved cases (7 shown):
Compound	Target Of Assay	Class Label
C=C1C(=O)O[C@H]2[C@H]1CC/C(C=Nc1c(N)cc(C(F)(F)F)cc1Br)=C\CC[C@@]1(C)O[C@@H]21	786-0 renal	no
C=C1C(=O)O[C@H]2[C@H]1CC/C(COC(=O)NCC(C)c1ccc(CC(C)C)cc1)=C\CC[C@@]1(C)O[C@@H]21 (stereo partly drawn)	786-0 renal	no
O=[N+]([O-])c1ccc(Sc2c3ccccc3nc3cc(Cl)ccc23)cc1	786-0 renal	no
C[C@H]1CCCC(O)C(O)[C@@H]2C[C@H](O[Si](C)(C)C(C)(C)C)C[C@H]2[C@H](O[Si](C)(C)C(C)(C)C)C(O)C(O)C(=O)O1 (stereo partly drawn)	786-0 renal	no
O=C(Nc1ccc(Cl)c(Cl)c1)NS(=O)(=O)c1cnccc1Oc1ccc(F)cc1	786-0 renal	no
Cc1ccc(NC(=O)c2cc(S(=O)(=O)N3C(=O)NC(=O)NS3(=O)=O)c(S)cc2Cl)cc1	786-0 renal	no
C(=N\Nc1nnn(Cc2ccccc2)n1)/c1ccccc1	786-0 renal	no

Okay, next one:
Query block: Which outcome did this test record for the compound O=C(N/N=C/c1ccccc1O)c1ccccc1 ?
Result block: yes

###

Known TGI of a selection of compounds
test system: MDA-MB-231 breast; assay: NCI tumour cell line growth inhibition, 48 h

Compound	TGI
CCOP(=O)(/C=C\n1ccc(N)nc1=O)OCC	> 100 µM
O=C(N[C@@H](C[Se][Se]C[C@H](NC(=O)c1ccc(Br)cc1F)C(=O)O)C(=O)O)c1ccc(Br)cc1F	> 100 µM
C\C(=N/N=C1/C(=C\N(C)C)C(=O)NC(=O)N1C)c1ccc(Cl)cc1	> 100 µM

Just so you know, measured TGI for C[n+]1c(-c2ccc(/C=C/C=N\NC(=O)c3ccc(C(=O)N/N=C\C=C\c4ccc(-c5cn6ccccc6[n+]5C)cc4)cc3)cc2)cn2ccccc21 came out at > 58.8 µM

Entry COC(=O)C1=Nc2c(C)nn(-c3ccccc3)c2N=C(c2ccccc2)C1 , TGI reported as > 10 µM

Noted for OCc1ccc2c(c1)CC1(Cc3ccc(/C=N/O)cc3C1)C2 (stereo unspecified) : its TGI reads > 100 µM
